Data provenance is ChEMBL document CHEMBL3603826.

ASSAY DETAILS: Selectivity index, ratio of cytotoxic IC50 for HEK293 cells to EC50 for anti-parasitic activity against Trypanosoma brucei brucei 427 bloodstream parasites
Type: toxicity, cell-based
MEASUREMENT PARAMETERS: human, read-out: Ratio IC50/EC50
PROPERTY LABEL: selectivity ratio

Solved entries (count: 2):
{"COMPOUND": "CCC(C)NC(=O)c1nc(-c2ccc(OC)cc2)cnc1N (centres undefined)", "selectivity ratio": "> 63.9"}
{"COMPOUND": "CCC(C)NC(=O)c1nc(-c2ccccc2C#N)cnc1N (centres undefined)", "selectivity ratio": "> 239"}

Each compound below has a reported value. Please supply its selectivity ratio.
1. Nc1ncc(-c2ccccc2)nc1C(=O)NC1CCCC1
2. CC(C)NC(=O)c1nc(-c2ccccc2)cnc1N

Reply:
1. > 368
2. > 33
